# Test system: KRAS-mutant PDC tumor spheroid with HUVEC/MSC, viability
# TEST NAME: Anticancer human tumor 327498-153-R-J2-PDC patient-derived uterine carcinosarcoma cell line growth inhibition [KRAS2]
# CONDITION SET: second compound 0.316 µM; first compound 1 µM; stronger effect = lower value
Could you mark each record yes if its viability, T/C falls strictly under 30%, and no if it equals or exceeds it?

Here are 4 compounds together with their reported answers.
| COMPOUND | EXPERIMENTAL TARGET | ANSWER LABEL |
| --- | --- | --- |
| CC1OCC2(CCN(c3cnc(Sc4ccnc(N)c4Cl)c(N)n3)CC2)C1N (stereo not given) + C=CC(=O)N1CCN(c2nc(OCC3CCCN3C)nc3c2CCN(c2cccc4cccc(C)c24)C3)CC1CC#N | KRAS-mutant PDC tumor spheroid with HUVEC/MSC, viability | yes |
| COc1cc(Nc2ncc3c(n2)-c2ccc(Cl)cc2C(c2c(F)cccc2OC)=NC3)ccc1C(=O)O + CC1OCC2(CCN(c3cnc(Sc4ccnc(N)c4Cl)c(N)n3)CC2)C1N | KRAS-mutant PDC tumor spheroid with HUVEC/MSC, viability | yes |
| CC(=O)OC12COC1CC(O)C1(C)C(=O)C(O)C3=C(C)C(OC(=O)C(O)C(NC(=O)OC(C)(C)C)c4ccccc4)CC(O)(C(OC(=O)c4ccccc4)C21)C3(C)C (stereo not given) + CC1OCC2(CCN(c3cnc(Sc4ccnc(N)c4Cl)c(N)n3)CC2)C1N | KRAS-mutant PDC tumor spheroid with HUVEC/MSC, viability | yes |
| Cn1nccc1Nc1nccc(-c2cc3c(s2)C(C)(C)N(CCN2CCOCC2)C3=O)n1 + C=CC(=O)N1CCN(c2nc(OCC3CCCN3C)nc3c2CCN(c2cccc4cccc(C)c24)C3)CC1CC#N | KRAS-mutant PDC tumor spheroid with HUVEC/MSC, viability | no |

Ask: Please let me know if COc1cc2nccc(Oc3ccc(NC(=O)C4(C(=O)Nc5ccc(F)cc5)CC4)cc3)c2cc1OC + CC1OCC2(CCN(c3cnc(Sc4ccnc(N)c4Cl)c(N)n3)CC2)C1N shows viability, T/C below 30%.
Reply: no

---

# Tested on: KRAS-mutant PDC tumor spheroid with HUVEC/MSC, viability
# TEST NAME: Anticancer human tumor 327498-153-R-J2-PDC cell line growth inhibition [KRAS2]; active = viability on the fitted dose curve at most 10% of control; inactive = the rest;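 further: spheroids exposed to agents for seven days before reading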
# CONDITION SET: second compound 10 µM; first compound 0.1 µM
Select the matching outcome among active, inactive

| MOLECULE | ANSWER LABEL |
| --- | --- |
| CN(C)C/C=C/C(=O)Nc1cc2c(Nc3ccc(F)c(Cl)c3)ncnc2cc1O[C@H]1CCOC1 + COc1cc2nc(C)nc(NC(C)c3cc(N)cc(C(F)(F)F)c3)c2cc1OC1CCOC1 | inactive |
| CC(C)NCC(C(=O)N1CCN(c2ncnc3c2C(C)CC3O)CC1)c1ccc(Cl)cc1 (stereo unspecified) + CNCc1ccccc1-c1csc(C(C)Nc2nc(C)nc3cc(OC)c(OC)cc23)c1 | active |
| COc1cc(Nc2ncc3c(n2)-c2ccc(Cl)cc2C(c2c(F)cccc2OC)=NC3)ccc1C(=O)O + CC1OCC2(CCN(c3cnc(Sc4ccnc(N)c4Cl)c(N)n3)CC2)C1N | active |
| O=C(c1cc(Cc2n[nH]c(=O)c3ccccc23)ccc1F)N1CCN(C(=O)C2CC2)CC1 + C=CC(=O)N1CCN(c2nc(=O)n(-c3c(C)ccnc3C(C)C)c3nc(-c4c(O)cccc4F)c(F)cc23)C(C)C1 | inactive |

Ask: How was Cn1nccc1Nc1nccc(-c2cc3c(s2)C(C)(C)N(CCN2CCOCC2)C3=O)n1 + CNCc1ccccc1-c1csc(C(C)Nc2nc(C)nc3cc(OC)c(OC)cc23)c1 classified in this test?
Reply: active

Ask: Could you check what this test reported for CC(=O)OC12COC1CC(O)C1(C)C(=O)C(O)C3=C(C)C(OC(=O)C(O)C(NC(=O)OC(C)(C)C)c4ccccc4)CC(O)(C(OC(=O)c4ccccc4)C21)C3(C)C (stereo unspecified) + C=CC(=O)N1CCN(c2nc(=O)n(-c3c(C)ccnc3C(C)C)c3nc(-c4c(O)cccc4F)c(F)cc23)C(C)C1 ?
Reply: inactive

Ask: Could you kindly confirm the outcome this assay logged for Cn1ncnc1[C@H]1c2n[nH]c(=O)c3cc(F)cc(c23)N[C@@H]1c1ccc(F)cc1 + CNCc1ccccc1-c1csc(C(C)Nc2nc(C)nc3cc(OC)c(OC)cc23)c1 ?
Reply: active

Ref: PubChem BioAssay AID1963867
